Target: 5-hydroxytryptamine receptor 1A (Homo sapiens)
Sequence (whole entry): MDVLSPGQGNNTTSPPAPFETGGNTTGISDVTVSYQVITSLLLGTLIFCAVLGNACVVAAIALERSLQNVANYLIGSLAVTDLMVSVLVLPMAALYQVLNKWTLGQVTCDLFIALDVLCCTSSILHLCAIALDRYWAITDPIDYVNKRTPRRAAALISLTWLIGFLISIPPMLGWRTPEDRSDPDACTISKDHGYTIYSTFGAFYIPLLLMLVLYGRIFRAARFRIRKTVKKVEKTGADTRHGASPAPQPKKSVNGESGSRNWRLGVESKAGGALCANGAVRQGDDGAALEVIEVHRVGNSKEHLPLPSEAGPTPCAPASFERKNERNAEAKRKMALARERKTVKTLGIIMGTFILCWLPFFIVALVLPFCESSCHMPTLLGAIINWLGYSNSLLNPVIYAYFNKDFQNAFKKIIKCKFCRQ
Test: Agonist activity at the 5-hydroxytryptamine 1A receptor was determined in vitro using a [35S]GTP-gamma-S,
Type: functional
Recorded measurements of Emax, one per entry
Could you keep your reply to the number by itself?

Known Emax results, listed for orientation:
C1=C(c2c[nH]c3ncccc23)CCN(CCOc2cccc3c2OCCO3)C1
30
Fc1ccc2c(C3CCN(CCOc4cccc5c4OCCO5)CC3)c[nH]c2c1
29.5
C1=C(c2c[nH]c3ncccc23)CCN(CCOc2cccc3ncccc23)C1
0
C1=C(c2c[nH]c3ncccc23)CCN(CCOc2cccc3[nH]ccc23)C1
7
Fc1ccc2[nH]cc(C3=CCN(CCOc4cccc5c4OCCO5)CC3)c2c1
11
Fc1ccc2c(C3=CCN(CCOc4cccc5c4OCCO5)CC3)c[nH]c2c1
53
C1=C(c2c[nH]c3ccccc23)CCN(CCOc2cccc3ncccc23)C1
14

Quick one: Emax of "C1=C(c2c[nH]c3ccccc23)CCN(CCOc2cccc3c2OCCO3)C1" ?
21

###

Recorded measurements of Ki, one per entry
molecular target: Adrenergic receptor alpha-1 (Rattus norvegicus, UniProt P15823+P23944+P43140); test: In vitro binding affinity towards Alpha-1 adrenergic receptor was determined by the displacement of [3H]prazosin; assay type: protein assay
Respond with the bare value in nM.

Known Ki results, listed for orientation:
Fc1ccc2c(C3CCN(CCOc4cccc5c4OCCO5)CC3)c[nH]c2c1
2.8
C1=C(c2c[nH]c3ccccc23)CCN(CCOc2cccc3[nH]ccc23)C1
0.19
C1=C(c2c[nH]c3ncccc23)CCN(CCOc2cccc3ncccc23)C1
78
C1=C(c2c[nH]c3ncccc23)CCN(CCOc2cccc3c2OCCO3)C1
33
Fc1ccc2[nH]cc(C3=CCN(CCOc4cccc5c4OCCO5)CC3)c2c1
30
Fc1ccc2c(C3=CCN(CCOc4cccc5c4OCCO5)CC3)c[nH]c2c1
4.1
C1=C(c2c[nH]c3ccccc23)CCN(CCOc2cccc3ncccc23)C1
3.6
C1=C(c2c[nH]c3ncccc23)CCN(CCOc2cccc3[nH]ccc23)C1
0.9

Now turn to the next compound.
Quick one: Ki of "C1=C(c2c[nH]c3ccccc23)CCN(CCOc2cccc3c2OCCO3)C1" ?
4.7

###

Recorded measurements of pKi, one per entry
molecular target: Sodium-dependent serotonin transporter (Homo sapiens, UniProt P31645); assay: Affinity for HC Serotonin transporter determined in vitro by incubating compound and [3H]5-HT with human carcinoma (Jar cells), previously treated with staurosporine; type: cell-based
Sequence (P31645 whole entry): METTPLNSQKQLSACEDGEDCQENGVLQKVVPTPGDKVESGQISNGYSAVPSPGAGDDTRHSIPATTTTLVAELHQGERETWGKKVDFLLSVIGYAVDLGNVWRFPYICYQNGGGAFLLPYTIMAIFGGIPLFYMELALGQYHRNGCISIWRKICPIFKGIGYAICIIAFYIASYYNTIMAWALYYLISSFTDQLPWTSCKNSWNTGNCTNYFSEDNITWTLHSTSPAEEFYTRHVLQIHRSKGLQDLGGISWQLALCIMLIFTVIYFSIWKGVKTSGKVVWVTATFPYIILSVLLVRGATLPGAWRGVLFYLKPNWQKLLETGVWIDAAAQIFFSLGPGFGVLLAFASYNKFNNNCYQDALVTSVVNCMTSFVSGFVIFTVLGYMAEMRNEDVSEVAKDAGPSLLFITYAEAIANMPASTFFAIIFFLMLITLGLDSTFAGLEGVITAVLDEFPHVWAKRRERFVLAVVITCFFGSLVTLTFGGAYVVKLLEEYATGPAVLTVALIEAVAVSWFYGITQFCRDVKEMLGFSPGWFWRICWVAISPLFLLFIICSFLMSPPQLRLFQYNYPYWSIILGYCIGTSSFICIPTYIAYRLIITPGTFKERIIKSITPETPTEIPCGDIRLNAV
Field pKi (float): negative decimal logarithm of the concentration in molar.

Known pKi results, listed for orientation:
C1=C(c2c[nH]c3ccccc23)CCN(CCOc2cccc3ncccc23)C1
7.03
Fc1ccc2[nH]cc(C3=CCN(CCOc4cccc5c4OCCO5)CC3)c2c1
7.33
C1=C(c2c[nH]c3ncccc23)CCN(CCOc2cccc3c2OCCO3)C1
6.56

Provide the documented pKi with Sodium-dependent serotonin transporter (Homo sapiens, UniProt P31645) as the system for "C1=C(c2c[nH]c3ncccc23)CCN(CCOc2cccc3ncccc23)C1"
6.41

Another molecule: "Fc1ccc2c(C3=CCN(CCOc4cccc5c4OCCO5)CC3)c[nH]c2c1"
7.70

Another molecule: "Fc1ccc2c(C3CCN(CCOc4cccc5c4OCCO5)CC3)c[nH]c2c1"
6.89

Another molecule: "C1=C(c2c[nH]c3ncccc23)CCN(CCOc2cccc3[nH]ccc23)C1"
6.76

Another molecule: "C1=C(c2c[nH]c3ccccc23)CCN(CCOc2cccc3[nH]ccc23)C1"
7.39

Another molecule: "C1=C(c2c[nH]c3ccccc23)CCN(CCOc2cccc3c2OCCO3)C1"
7.35
